STUDY_SYSTEM: NAD-dependent protein deacetylase sirtuin-1 (Homo sapiens)
Sequence (Q96EB6 whole entry): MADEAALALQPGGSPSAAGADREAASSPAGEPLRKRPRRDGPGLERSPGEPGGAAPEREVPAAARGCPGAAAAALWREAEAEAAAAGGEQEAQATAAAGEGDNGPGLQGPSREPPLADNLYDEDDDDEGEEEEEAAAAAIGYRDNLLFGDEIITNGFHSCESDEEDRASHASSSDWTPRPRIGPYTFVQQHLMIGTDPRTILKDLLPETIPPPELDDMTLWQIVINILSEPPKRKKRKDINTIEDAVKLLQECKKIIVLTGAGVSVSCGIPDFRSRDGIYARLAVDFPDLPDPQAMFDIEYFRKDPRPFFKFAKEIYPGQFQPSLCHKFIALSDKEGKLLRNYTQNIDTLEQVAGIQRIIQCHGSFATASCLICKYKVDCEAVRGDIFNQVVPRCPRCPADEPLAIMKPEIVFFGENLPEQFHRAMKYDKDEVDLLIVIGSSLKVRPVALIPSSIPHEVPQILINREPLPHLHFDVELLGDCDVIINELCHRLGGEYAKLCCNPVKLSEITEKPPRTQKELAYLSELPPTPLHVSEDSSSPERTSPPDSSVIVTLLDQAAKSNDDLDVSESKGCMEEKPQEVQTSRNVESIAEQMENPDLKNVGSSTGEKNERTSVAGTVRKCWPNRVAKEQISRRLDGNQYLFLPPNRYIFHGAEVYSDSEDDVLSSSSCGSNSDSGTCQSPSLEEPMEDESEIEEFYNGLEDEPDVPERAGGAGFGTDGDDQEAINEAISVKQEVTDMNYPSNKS
TEST: Inhibition of recombinant human C-terminal His6-tagged SIRT1 (Met1 to Ser747 residues) defatty-acylase activity expressed in Escherichia coli using SFP3 as substrate measured at 5 mins interval for 60 mins in presence of NAD+ by fluorescence assay
pIC50: −log10 of the molar value. Where a name gives a salt, the structure may show the parent alone. Residues, ends and D or L forms follow the SMILES beside them. *: point of attachment. X5 = CCN(CC)c1ccc(/N=N/c2ccc(CC(=O)*)cc2)cc1; X4 = CN(C)c1ccc(/N=N/c2ccc(CC(=O)*)cc2)cc1; X2 = CN(C)c1ccc(/N=N/c2ccc(C(=O)*)cc2)cc1; Tfa = O=C(C(F)(F)F)*
The entries below are paired with their reported pIC50.

# COMPOUND, STUDY_SYSTEM, INEQUALITY_SYMBOL, pIC50
data = [
    ("CC[C@H](C)[C@H](NC(=O)[C@H](CCCNC(=N)N)NC(C)=O)C(=O)N[C@@H](CCCCNC(=O)Cc1ccc(/N=N/c2ccc(N(CC)CC)cc2)cc1)C(=O)N[C@@H](CCCNC(=N)N)C(=O)N[C@@H](Cc1ccc(O)cc1)C(N)=O (Ac-RIK(X5)RY-NH2)", "NAD-dependent protein deacetylase sirtuin-1 (Homo sapiens)", "=", 5.96),
    ("CC[C@H](C)[C@H](NC(=O)[C@H](CCCNC(=N)N)NC(C)=O)C(=O)N[C@@H](CCCCNC(=O)Cc1ccc(/N=N/c2ccc(N(C)C)cc2)cc1)C(=O)N[C@@H](CCCNC(=N)N)C(=O)N[C@@H](Cc1ccc(O)cc1)C(N)=O (Ac-RIK(X4)RY-NH2)", "NAD-dependent protein deacetylase sirtuin-1 (Homo sapiens)", "=", 6.40),
    ("Cc1cc(C)nc(SCC(=O)Nc2ncc(Cc3cccc4ccccc34)s2)n1", "NAD-dependent protein deacetylase sirtuin-1 (Homo sapiens)", "<", 5.00),
    ("CC[C@H](C)[C@H](NC(=O)[C@H](CCCNC(=N)N)NC(C)=O)C(=O)N[C@@H](CCCCNC(=O)C(F)(F)F)C(=O)N[C@@H](CCCNC(=N)N)C(=O)N[C@@H](Cc1ccc(O)cc1)C(N)=O (Ac-RIK(Tfa)RY-NH2)", "NAD-dependent protein deacetylase sirtuin-1 (Homo sapiens)", "<", 5.70),
    ("CC[C@H](C)[C@H](NC(=O)[C@@H](NC(=O)[C@H](CCCCNC(=O)c1ccc(/N=N/c2ccc(N(C)C)cc2)cc1)NC(=O)[C@H](CC(=O)O)NC(=O)[C@H](CO)NC(C)=O)[C@@H](C)O)C(N)=O (Ac-SDK(X2)TI-NH2)", "NAD-dependent protein deacetylase sirtuin-1 (Homo sapiens)", "<", 5.70),
]

---

STUDY_SYSTEM: NAD-dependent protein deacetylase sirtuin-3, mitochondrial (Homo sapiens, UniProt Q9NTG7)
Sequence (Q9NTG7 whole entry, the tested form may be a part): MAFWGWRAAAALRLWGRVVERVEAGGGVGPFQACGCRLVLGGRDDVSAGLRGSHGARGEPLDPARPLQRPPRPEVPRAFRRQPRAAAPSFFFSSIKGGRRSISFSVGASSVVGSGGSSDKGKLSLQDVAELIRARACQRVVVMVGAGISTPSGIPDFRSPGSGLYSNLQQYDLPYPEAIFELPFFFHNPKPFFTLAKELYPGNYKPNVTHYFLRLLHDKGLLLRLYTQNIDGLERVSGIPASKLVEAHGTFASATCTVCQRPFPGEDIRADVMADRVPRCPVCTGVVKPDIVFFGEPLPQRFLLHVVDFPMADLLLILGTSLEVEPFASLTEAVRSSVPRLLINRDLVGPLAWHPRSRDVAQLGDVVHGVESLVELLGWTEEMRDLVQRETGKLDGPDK
TEST: Inhibition of recombinant human SIRT3 (118 to 399 residues) defatty-acylase activity expressed in Escherichia coli using SFP3 as substrate measured at 5 mins interval for 60 mins in presence of NAD+ by fluorescence assay
pIC50: −log10 of the molar value. Counter-ions that a name gives are not always drawn. Residues, ends and D or L forms follow the SMILES beside them. *: point of attachment. Phenylacetyl(4-E-phenylazo) = O=C(Cc1ccc(/N=N/c2ccccc2)cc1)*; Tfa = O=C(C(F)(F)F)*
The entries below are paired with their reported pIC50.

# COMPOUND, pIC50
records = [
    ("CC[C@H](C)[C@H](NC(=O)[C@H](CCCNC(=N)N)NC(C)=O)C(=O)N[C@@H](CCCCNC(=O)Cc1ccc(/N=N/c2ccccc2)cc1)C(=O)N[C@@H](CCCNC(=N)N)C(=O)N[C@@H](Cc1ccc(O)cc1)C(N)=O (Ac-RIK(Phenylacetyl(4-E-phenylazo))RY-NH2)", 7.11),
    ("CC[C@H](C)[C@H](NC(=O)[C@H](CCCNC(=N)N)NC(C)=O)C(=O)N[C@@H](CCCCNC(=O)C(F)(F)F)C(=O)N[C@@H](CCCNC(=N)N)C(=O)N[C@@H](Cc1ccc(O)cc1)C(N)=O (Ac-RIK(Tfa)RY-NH2)", 6.27),
]

---

The entries below are paired with their reported pIC50.
STUDY_SYSTEM: NAD-dependent protein deacetylase sirtuin-2 (Homo sapiens, UniProt Q8IXJ6)
Sequence (Q8IXJ6 whole entry): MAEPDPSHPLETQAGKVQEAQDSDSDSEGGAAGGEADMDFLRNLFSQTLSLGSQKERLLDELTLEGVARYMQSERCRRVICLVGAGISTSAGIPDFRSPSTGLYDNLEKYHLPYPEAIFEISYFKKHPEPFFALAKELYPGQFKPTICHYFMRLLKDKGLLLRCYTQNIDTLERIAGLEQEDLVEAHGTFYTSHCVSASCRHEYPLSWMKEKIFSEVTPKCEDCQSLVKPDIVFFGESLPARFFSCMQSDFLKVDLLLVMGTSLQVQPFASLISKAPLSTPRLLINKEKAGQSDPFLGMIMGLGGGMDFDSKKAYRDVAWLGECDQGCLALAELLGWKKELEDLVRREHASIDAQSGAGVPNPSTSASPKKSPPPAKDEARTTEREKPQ
TEST: Inhibition of recombinant human SIRT2 deacylation activity using Fluor de Lys Sirt2 as substrate measured at 5 mins interval for 30 mins in presence of NAD+ by fluorescence assay
pIC50: −log10 of the molar value. Non-standard residues stand in square brackets, D forms with d. Residues, ends and D or L forms follow the SMILES beside them. *: point of attachment. Lys(thiomyristoyl) = CCCCCCCCCCCCCC(=S)NCCCC[C@H](N)C(=O)O; X5 = CCN(CC)c1ccc(/N=N/c2ccc(CC(=O)*)cc2)cc1; X3 = CN(C)c1ccc(/N=N/c2ccc(CCC(=O)*)cc2)cc1
RESULT_TYPE: pIC50

# COMPOUND, VALUE_REPORTED
records = [
    ("CCCCCCCCCCCCCC(=S)NCCCC[C@H](NC(=O)[C@@H](NC(=O)[C@H](CCCNC(=N)N)NC(C)=O)[C@@H](C)CC)C(=O)N[C@@H](CCCNC(=N)N)C(=O)N[C@@H](Cc1ccc(O)cc1)C(N)=O (Ac-RI[Lys(thiomyristoyl)]RY-NH2)", 6.96),
    ("CC[C@H](C)[C@H](NC(=O)[C@H](CCCNC(=N)N)NC(C)=O)C(=O)N[C@@H](CCCCNC(=O)CCc1ccc(/N=N/c2ccc(N(C)C)cc2)cc1)C(=O)N[C@@H](CCCNC(=N)N)C(=O)N[C@@H](Cc1ccc(O)cc1)C(N)=O (Ac-RIK(X3)RY-NH2)", 5.96),
    ("C[C@H](NC(=O)[C@H](CCCCNC(=O)Cc1ccc(/N=N/c2ccc(OCCc3ccccc3)cc2)cc1)NC(=O)OCc1ccccc1)C(N)=O", 6.40),
    ("CC[C@H](C)[C@H](NC(=O)[C@H](CCCNC(=N)N)NC(C)=O)C(=O)N[C@@H](CCCCNC(=O)Cc1ccc(/N=N/c2ccc(N(CC)CC)cc2)cc1)C(=O)N[C@@H](CCCNC(=N)N)C(=O)N[C@@H](Cc1ccc(O)cc1)C(N)=O (Ac-RIK(X5)RY-NH2)", 6.59),
]

---

STUDY_SYSTEM: UniProt Q8IXJ6
TEST: Inhibition of recombinant human SIRT2 demyristoylase activity using p53(Myr)-AMC as substrate measured after 3 hrs in presence of NAD+ and trypsin by fluorescence assay
pIC50: −log10 of the molar value. Where a name gives a salt, the structure may show the parent alone. Non-standard residues stand in square brackets, D forms with d. Residues, ends and D or L forms follow the SMILES beside them. *: point of attachment. Phenylacetyl(4-E-phenylazo) = O=C(Cc1ccc(/N=N/c2ccccc2)cc1)*; Lys(thiomyristoyl) = CCCCCCCCCCCCCC(=S)NCCCC[C@H](N)C(=O)O; X5 = CCN(CC)c1ccc(/N=N/c2ccc(CC(=O)*)cc2)cc1; X3 = CN(C)c1ccc(/N=N/c2ccc(CCC(=O)*)cc2)cc1; X4 = CN(C)c1ccc(/N=N/c2ccc(CC(=O)*)cc2)cc1; X2 = CN(C)c1ccc(/N=N/c2ccc(C(=O)*)cc2)cc1; Tfa = O=C(C(F)(F)F)*

# MOLECULE, INEQUALITY_SYMBOL, pIC50
measured = [
    ("CC[C@H](C)[C@H](NC(=O)[C@H](CCCNC(=N)N)NC(C)=O)C(=O)N[C@@H](CCCCNC(=O)C(F)(F)F)C(=O)N[C@@H](CCCNC(=N)N)C(=O)N[C@@H](Cc1ccc(O)cc1)C(N)=O (Ac-RIK(Tfa)RY-NH2)", "=", 5.96),
    ("CCCCCCCCCCCCCC(=S)NCCCC[C@H](NC(=O)[C@@H](NC(=O)[C@H](CCCNC(=N)N)NC(C)=O)[C@@H](C)CC)C(=O)N[C@@H](CCCNC(=N)N)C(=O)N[C@@H](Cc1ccc(O)cc1)C(N)=O (Ac-RI[Lys(thiomyristoyl)]RY-NH2)", "=", 7.36),
    ("CC[C@H](C)[C@H](NC(=O)[C@H](CCCNC(=N)N)NC(C)=O)C(=O)N[C@@H](CCCCNC(=O)Cc1ccc(/N=N/c2ccc(N(CC)CC)cc2)cc1)C(=O)N[C@@H](CCCNC(=N)N)C(=O)N[C@@H](Cc1ccc(O)cc1)C(N)=O (Ac-RIK(X5)RY-NH2)", "=", 6.72),
    ("CC[C@H](C)[C@H](NC(=O)[C@H](CCCNC(=N)N)NC(C)=O)C(=O)N[C@@H](CCCCNC(=O)c1ccc(/N=N/c2ccc(N(C)C)cc2)cc1)C(=O)N[C@@H](CCCNC(=N)N)C(=O)N[C@@H](Cc1ccc(O)cc1)C(N)=O (Ac-RIK(X2)RY-NH2)", "=", 5.80),
    ("CC[C@H](C)[C@H](NC(=O)[C@@H](NC(=O)[C@H](CCCCNC(=O)c1ccc(/N=N/c2ccc(N(C)C)cc2)cc1)NC(=O)[C@H](CC(=O)O)NC(=O)[C@H](CO)NC(C)=O)[C@@H](C)O)C(N)=O (Ac-SDK(X2)TI-NH2)", "<", 5.70),
    ("CC[C@H](C)[C@H](NC(C)=O)C(=O)N[C@@H](CCCCNC(=O)Cc1ccc(/N=N/c2ccccc2)cc1)C(=O)N[C@@H](CCCNC(=N)N)C(N)=O", "=", 6.60),
    ("CC[C@H](C)[C@H](NC(=O)[C@@H](NC(=O)[C@H](CCCCNC(=O)Cc1ccc(/N=N/c2ccccc2)cc1)NC(=O)[C@H](CC(=O)O)NC(=O)[C@H](CO)NC(C)=O)[C@@H](C)O)C(N)=O (Ac-SDK(Phenylacetyl(4-E-phenylazo))TI-NH2)", "<", 5.70),
    ("CC[C@H](C)[C@H](NC(=O)[C@H](CCCNC(=N)N)NC(C)=O)C(=O)N[C@@H](CCCCNC(=O)CCc1ccc(/N=N/c2ccc(N(C)C)cc2)cc1)C(=O)N[C@@H](CCCNC(=N)N)C(=O)N[C@@H](Cc1ccc(O)cc1)C(N)=O (Ac-RIK(X3)RY-NH2)", "<", 5.70),
    ("CC[C@H](C)[C@H](NC(=O)[C@H](CCCNC(=N)N)NC(C)=O)C(=O)N[C@@H](CCCCNC(=O)Cc1ccc(/N=N/c2ccc(N(C)C)cc2)cc1)C(=O)N[C@@H](CCCNC(=N)N)C(=O)N[C@@H](Cc1ccc(O)cc1)C(N)=O (Ac-RIK(X4)RY-NH2)", "=", 6.89),
]
